These measurements were taken from paper PMC3706463.

# Experimental system: T1, ERRα LBD (ERRα-189-423) homodimer (UniProt P11474 189-423)
# T1 construct: also called ERR LBD; source: cloned in pET24b
# T1 sequence (looked up): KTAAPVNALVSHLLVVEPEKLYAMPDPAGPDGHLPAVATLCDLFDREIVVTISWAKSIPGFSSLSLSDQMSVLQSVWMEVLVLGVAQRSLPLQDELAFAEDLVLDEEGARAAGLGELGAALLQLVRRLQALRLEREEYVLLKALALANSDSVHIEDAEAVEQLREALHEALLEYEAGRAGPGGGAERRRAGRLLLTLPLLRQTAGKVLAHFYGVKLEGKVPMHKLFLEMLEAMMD
# Run description: not stated; binding of short PGC-1α peptides to ERR LBDs; told only in the discussion
# Condition: both partners purified
Would you kindly list Kd for each of these binders?
Answer format: value, then unit.

Return reported Kd values for all items listed beneath this line.
1. QQQKPQRRPCSELLKYLTTNDD (Peptide limits are not printed in the supplied text; taken from the PGC-1α L3 peptide crystallised with ERRα (PDB 3D24, cited in the supplement). Termini unknown.) [short peptide encompassing motif L3 of PGC-1α]
2. EAEEPSLLKKLLLAPANTQ (Peptide limits are not printed in the supplied text; 137-155 is the commonly used PGC-1α L2 peptide around motif 144-148. Termini unknown.) [short peptide encompassing motif L2 of PGC-1α]

## Result
["4.1 µM", "6.1 µM"]
